Origin of the recorded values: ChEMBL document CHEMBL3734705

# Tested on: M14
# experiment summary: Cytotoxicity against human M14 cells assessed as growth level at 10 uM after 48 hrs by SRB assay
# Type: functional
observation type: Activity (%)

C=C1CC[C@@H]2[C@](C)(COC(C)=O)[C@H](OC(C)=O)CC[C@@]2(C)[C@@H]1C/C=C1/C(=O)OC[C@H]1OC(C)=O = 35.37
C=C1CC[C@@H]2[C@](C)(COC(C)=O)[C@H](OC(C)=O)CC[C@@]2(C)[C@@H]1CC(NCc1ccc(F)cc1)C1=CCOC1=O (mixture of isomers) = 37.3
C=C1CC[C@@H]2[C@](C)(CO)[C@H](O)CC[C@@]2(C)[C@@H]1C/C=C1/C(=O)OC[C@H]1O [ANDROGRAPHOLIDE] = 84.88
C=C1CC[C@@H]2[C@](C)(COC(C)=O)[C@H](OC(C)=O)CC[C@@]2(C)[C@@H]1CC(NCCCCCCCC)C1=CCOC1=O (mixture of isomers) = 75.91
C=C1CC[C@@H]2[C@](C)(COC(C)=O)[C@H](OC(C)=O)CC[C@@]2(C)[C@@H]1CC(NCc1cccc(Cl)c1)C1=CCOC1=O (mixture of isomers) = 55.02
C=C1CC[C@@H]2[C@](C)(COC(C)=O)[C@H](OC(C)=O)CC[C@@]2(C)[C@@H]1CC(NCCCC)C1=CCOC1=O (mixture of isomers) = 92.75

---

# experiment summary: Cytotoxicity against human IGROV1 cells assessed as growth level at 10 uM after 48 hrs by SRB assay
# Type: functional, IGROV-1
Some compounds, each annotated with its measured Activity.
observation type: Activity (%)

C=C1CC[C@@H]2[C@](C)(CO)[C@H](O)CC[C@@]2(C)[C@@H]1C/C=C1/C(=O)OC[C@H]1O [ANDROGRAPHOLIDE] = 103.71
C=C1CC[C@@H]2[C@](C)(COC(C)=O)[C@H](OC(C)=O)CC[C@@]2(C)[C@@H]1CC(NC1CC1)C1=CCOC1=O (mixture of isomers) = 96
C=C1CC[C@@H]2[C@](C)(COC(C)=O)[C@H](OC(C)=O)CC[C@@]2(C)[C@@H]1CC(NCCCC)C1=CCOC1=O (mixture of isomers) = 80.01
C=C1CC[C@@H]2[C@](C)(COC(C)=O)[C@H](OC(C)=O)CC[C@@]2(C)[C@@H]1CC(Nc1ccc(S(=O)(=O)NC(C)=O)cc1)C1=CCOC1=O (mixture of isomers) = -10.04
C=C1CC[C@@H]2[C@](C)(COC(C)=O)[C@H](OC(C)=O)CC[C@@]2(C)[C@@H]1CC(Sc1ccccc1)C1=CCOC1=O (mixture of isomers) = 25.2
C=C1CC[C@@H]2[C@](C)(COC(C)=O)[C@H](OC(C)=O)CC[C@@]2(C)[C@@H]1CC(NCCCCCCCC)C1=CCOC1=O (mixture of isomers) = 70.18
C=C1CC[C@@H]2[C@](C)(COC(C)=O)[C@H](OC(C)=O)CC[C@@]2(C)[C@@H]1CC(NC1CCCC1)C1=CCOC1=O (some centres not stated) = 88.25
C=C1CC[C@@H]2[C@](C)(COC(C)=O)[C@H](OC(C)=O)CC[C@@]2(C)[C@@H]1CC(NCc1cccc(Cl)c1)C1=CCOC1=O (mixture of isomers) = 64.14
C=C1CC[C@@H]2[C@](C)(COC(C)=O)[C@H](OC(C)=O)CC[C@@]2(C)[C@@H]1CC(NCCCCCCCCCCCCCCCCCC)C1=CCOC1=O (mixture of isomers) = 110.04
C=C1CC[C@@H]2[C@](C)(COC(C)=O)[C@H](OC(C)=O)CC[C@@]2(C)[C@@H]1CC(NCc1ccccc1)C1=CCOC1=O (mixture of isomers) = 62.9
C=C1CC[C@@H]2[C@](C)(COC(C)=O)[C@H](OC(C)=O)CC[C@@]2(C)[C@@H]1CC(NCc1ccc(F)cc1)C1=CCOC1=O (mixture of isomers) = 48.35
C=C1CC[C@@H]2[C@](C)(COC(C)=O)[C@H](OC(C)=O)CC[C@@]2(C)[C@@H]1C/C=C1/C(=O)OC[C@H]1OC(C)=O = 102.65

---

# experiment summary: Cytotoxicity against human SF268 cells assessed as growth inhibition at 10 uM after 48 hrs by SRB assay
# Type: functional
# study conditions: SF-268, 48 h, read-out: GI
observation type: inhibition of growth at 10 µM (%)

C=C1CC[C@@H]2[C@](C)(CO)[C@H](O)CC[C@@]2(C)[C@@H]1C/C=C1/C(=O)OC[C@H]1O [ANDROGRAPHOLIDE] = 2.34
C=C1CC[C@@H]2[C@](C)(COC(C)=O)[C@H](OC(C)=O)CC[C@@]2(C)[C@@H]1CC(NCc1cccc(Cl)c1)C1=CCOC1=O (mixture of isomers) = 46.7
C=C1CC[C@@H]2[C@](C)(COC(C)=O)[C@H](OC(C)=O)CC[C@@]2(C)[C@@H]1CC(NCCCC)C1=CCOC1=O (mixture of isomers) = 23

---

Recorded Activity, one value per entry.
# experiment summary: Cytotoxicity against human HCT116 cells assessed as growth level at 10 uM after 48 hrs by SRB assay
# Type: functional, HCT-116
observation type: Activity (%)

C=C1CC[C@@H]2[C@](C)(COC(C)=O)[C@H](OC(C)=O)CC[C@@]2(C)[C@@H]1CC(NCc1cccc(Cl)c1)C1=CCOC1=O (mixture of isomers) = 35.94
C=C1CC[C@@H]2[C@](C)(COC(C)=O)[C@H](OC(C)=O)CC[C@@]2(C)[C@@H]1CC(NC1CC1)C1=CCOC1=O (mixture of isomers) = 88.19
C=C1CC[C@@H]2[C@](C)(COC(C)=O)[C@H](OC(C)=O)CC[C@@]2(C)[C@@H]1CC(NCCCCCCCCCCCCCCCCCC)C1=CCOC1=O (mixture of isomers) = 105.04

---

# experiment summary: Cytotoxicity against human HOP92 cells assessed as growth inhibition at 10 uM after 48 hrs by SRB assay
# Assay type: functional
# study conditions: HOP-92, 48 h, read-out: GI
observation type: inhibition of growth at 10 µM (%)

C=C1CC[C@@H]2[C@](C)(COC(C)=O)[C@H](OC(C)=O)CC[C@@]2(C)[C@@H]1C/C=C1/C(=O)OC[C@H]1OC(C)=O = 28.1
C=C1CC[C@@H]2[C@](C)(COC(C)=O)[C@H](OC(C)=O)CC[C@@]2(C)[C@@H]1CC(NCc1cccc(Cl)c1)C1=CCOC1=O (mixture of isomers) = 33.7
C=C1CC[C@@H]2[C@](C)(COC(C)=O)[C@H](OC(C)=O)CC[C@@]2(C)[C@@H]1CC(NCc1ccccc1)C1=CCOC1=O (mixture of isomers) = 58.3

---

// inhibition of growth at 10 µM lookup, one value per entry
# Test system: NCI-H522
# experiment summary: Cytotoxicity against human NCI-H522 cells assessed as growth inhibition at 10 uM after 48 hrs by SRB assay
# Type: functional
# study conditions: NCI-H522, 48 h, read-out: GI
observation type: inhibition of growth at 10 µM

C=C1CC[C@@H]2[C@](C)(COC(C)=O)[C@H](OC(C)=O)CC[C@@]2(C)[C@@H]1CC(NCCCC)C1=CCOC1=O (mixture of isomers) = 20.9%
C=C1CC[C@@H]2[C@](C)(COC(C)=O)[C@H](OC(C)=O)CC[C@@]2(C)[C@@H]1CC(NCc1ccc(F)cc1)C1=CCOC1=O (mixture of isomers) = 79.1%
C=C1CC[C@@H]2[C@](C)(COC(C)=O)[C@H](OC(C)=O)CC[C@@]2(C)[C@@H]1C/C=C1/C(=O)OC[C@H]1OC(C)=O = 41.6%
C=C1CC[C@@H]2[C@](C)(COC(C)=O)[C@H](OC(C)=O)CC[C@@]2(C)[C@@H]1CC(NCc1cccc(Cl)c1)C1=CCOC1=O (mixture of isomers) = 47.5%
C=C1CC[C@@H]2[C@](C)(COC(C)=O)[C@H](OC(C)=O)CC[C@@]2(C)[C@@H]1CC(NC1CCCC1)C1=CCOC1=O (some centres not stated) = 54.4%
C=C1CC[C@@H]2[C@](C)(CO)[C@H](O)CC[C@@]2(C)[C@@H]1C/C=C1/C(=O)OC[C@H]1O [ANDROGRAPHOLIDE] = 82.9%
C=C1CC[C@@H]2[C@](C)(COC(C)=O)[C@H](OC(C)=O)CC[C@@]2(C)[C@@H]1CC(NCCCCCCCC)C1=CCOC1=O (mixture of isomers) = 35.6%

---

# experiment summary: Cytotoxicity against human HL-60(TB) cells assessed as growth level at 10 uM after 48 hrs by SRB assay
# Type: functional
# note: boundary value 80% maps to rule not met; Activity below it maps to rule met

C=C1CC[C@@H]2[C@](C)(COC(C)=O)[C@H](OC(C)=O)CC[C@@]2(C)[C@@H]1CC(NCCCCCCCC)C1=CCOC1=O (mixture of isomers) = rule met
C=C1CC[C@@H]2[C@](C)(COC(C)=O)[C@H](OC(C)=O)CC[C@@]2(C)[C@@H]1CC(NCc1ccc(F)cc1)C1=CCOC1=O (mixture of isomers) = rule met
C=C1CC[C@@H]2[C@](C)(COC(C)=O)[C@H](OC(C)=O)CC[C@@]2(C)[C@@H]1CC(NC1CC1)C1=CCOC1=O (mixture of isomers) = rule not met
C=C1CC[C@@H]2[C@](C)(COC(C)=O)[C@H](OC(C)=O)CC[C@@]2(C)[C@@H]1CC(NCCCCCCCCCCCCCCCCCC)C1=CCOC1=O (mixture of isomers) = rule not met
C=C1CC[C@@H]2[C@](C)(COC(C)=O)[C@H](OC(C)=O)CC[C@@]2(C)[C@@H]1CC(Sc1ccccc1)C1=CCOC1=O (mixture of isomers) = rule met
